Experiment: Pharmacokinetic assay in Balb/c mice (plasma and brain tissue)
Assay type: in vivo
Conditions: mouse, po; brain tissue, 5 mg/kg p.o., male Balb/c mice; read-out: Mean residence time MRT
Overview of reported MRT across a group of molecules:

>  <chemical smiles>
C[C@@]1(O)CC[C@H]2[C@H](CC[C@@H]3[C@@H]2CC[C@@]2(C)[C@H]3[C@@H]3C[C@@H]3[C@@H]2C(=O)Cn2ccc(C#N)n2)C1

>  <unit>
h

>  <MRT>
1.1

$$$$
>  <chemical smiles>
C[C@@H]1C[C@H](C(=O)Cn2nccn2)[C@@]2(C)CC[C@H]3[C@@H](CC[C@@H]4C[C@](C)(O)CC[C@@H]43)[C@H]12

>  <unit>
h

>  <MRT>
1.41

$$$$
>  <chemical smiles>
C[C@@]1(O)CC[C@H]2[C@H](CC[C@@H]3[C@@H]2CC[C@@]2(C)[C@H]3[C@@H]3C[C@@H]3[C@@H]2C(=O)Cn2cc(C#N)cn2)C1

>  <unit>
h

>  <MRT>
2.39

$$$$
>  <chemical smiles>
C[C@@]1(O)CC[C@H]2[C@H](CC[C@@H]3[C@@H]2CC[C@@]2(C)[C@H]3[C@@H]3C[C@@H]3[C@@H]2C(=O)Cn2ccc(C(F)(F)F)n2)C1

>  <unit>
h

>  <MRT>
2.4

$$$$
>  <chemical smiles>
C[C@@]1(O)CC[C@H]2[C@H](CC[C@@H]3[C@@H]2CC[C@@]2(C)[C@H]3[C@@H]3C[C@@H]3[C@@H]2C(=O)Cn2ncnn2)C1

>  <unit>
h

>  <MRT>
0.9

$$$$
>  <chemical smiles>
CC[C@@H]1C[C@H](C(=O)Cn2cc(C#N)cn2)[C@@]2(C)CC[C@H]3[C@@H](CC[C@@H]4C[C@](C)(O)CC[C@@H]43)[C@H]12

>  <unit>
h

>  <MRT>
7.97

$$$$
>  <chemical smiles>
CC[C@@H]1C[C@H](C(=O)Cn2ccnn2)[C@@]2(C)CC[C@H]3[C@@H](CC[C@@H]4C[C@](C)(O)CC[C@@H]43)[C@H]12

>  <unit>
h

>  <MRT>
2.1

$$$$
>  <chemical smiles>
C[C@@]1(O)CC[C@H]2[C@H](CC[C@@H]3[C@@H]2CC[C@@]2(C)[C@H]3[C@@H]3C[C@@H]3[C@@H]2C(=O)Cn2cc(C(F)(F)F)cn2)C1

>  <unit>
h

>  <MRT>
5.53

$$$$
>  <chemical smiles>
C[C@@H]1C[C@H](C(=O)Cn2ccc(C#N)n2)[C@@]2(C)CC[C@H]3[C@@H](CC[C@@H]4C[C@](C)(O)CC[C@@H]43)[C@H]12

>  <unit>
h

>  <MRT>
2.35

$$$$
>  <chemical smiles>
C[C@@]1(O)CC[C@H]2[C@H](CC[C@@H]3[C@@H]2CC[C@@]2(C)[C@H]3[C@H](C3CC3)C[C@@H]2C(=O)Cn2ncnn2)C1

>  <unit>
h

>  <MRT>
6.73

$$$$
>  <chemical smiles>
C[C@@]1(O)CC[C@H]2[C@H](CC[C@@H]3[C@@H]2CC[C@@]2(C)[C@H]3[C@H](C3CC3)C[C@@H]2C(=O)Cn2nccn2)C1

>  <unit>
h

>  <MRT>
1.91

$$$$
